Molecular target: C-C chemokine receptor type 2 (Homo sapiens, UniProt P41597, D284A)
Sequence (P41597 whole entry D284A): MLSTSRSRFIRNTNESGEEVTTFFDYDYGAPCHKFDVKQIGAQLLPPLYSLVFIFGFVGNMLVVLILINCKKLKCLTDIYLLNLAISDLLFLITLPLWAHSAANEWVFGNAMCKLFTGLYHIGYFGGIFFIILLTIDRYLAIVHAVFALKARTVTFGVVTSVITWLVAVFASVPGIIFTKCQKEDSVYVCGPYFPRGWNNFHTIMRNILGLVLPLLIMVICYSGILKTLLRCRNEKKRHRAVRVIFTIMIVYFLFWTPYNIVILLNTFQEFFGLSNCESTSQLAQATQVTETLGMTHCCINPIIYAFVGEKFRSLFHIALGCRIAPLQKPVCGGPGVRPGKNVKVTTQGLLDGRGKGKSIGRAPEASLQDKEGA
Assay: Binding affinity of compound (10 uM) towards D284A receptor variant (mutant CCR2 receptor) using radioligand [125I]MCP-1 in HEK 293 cells
pKi: −log10 of the molar value.

# sample-smiles, pKi
data = [
    ("Cc1ccc(CN2CC[C@@H](NC(=O)CNC(=O)c3cccc(C(F)(F)F)c3)C2)c(C)c1", 6.14),
    ("O=C(/C=C/c1ccc(Cl)c(Cl)c1)NCCCCCN1CCC(c2c[nH]c3ccc(O)cc23)CC1", 6.64),
    ("Cc1ccc(-c2ccc3c(c2)C=C(C(=O)Nc2ccc(CN(C)C4CCOCC4)cc2)CCC3)cc1", 6.23),
    ("Cc1ccc(-c2ccc3c(c2)C=C(C(=O)Nc2ccc(C[N+](C)(C)C4CCOCC4)cc2)CCC3)cc1.[Cl-]", 7.90),
]

* * *

Molecular target: C-C chemokine receptor type 2 (Homo sapiens, UniProt P41597, T290A)
Sequence (P41597 whole entry T290A): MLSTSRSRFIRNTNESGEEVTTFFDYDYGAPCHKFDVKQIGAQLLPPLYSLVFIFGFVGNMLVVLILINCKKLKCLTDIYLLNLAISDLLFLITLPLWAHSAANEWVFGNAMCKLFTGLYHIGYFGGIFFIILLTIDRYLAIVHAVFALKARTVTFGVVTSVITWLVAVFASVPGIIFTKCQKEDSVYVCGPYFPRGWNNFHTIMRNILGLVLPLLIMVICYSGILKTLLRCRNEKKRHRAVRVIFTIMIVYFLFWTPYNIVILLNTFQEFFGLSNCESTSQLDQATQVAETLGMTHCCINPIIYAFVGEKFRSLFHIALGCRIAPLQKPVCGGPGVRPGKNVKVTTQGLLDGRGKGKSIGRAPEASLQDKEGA
Assay: Binding affinity of compound (10 uM) towards T290A receptor variant (mutant CCR2 receptor) using radioligand [125I]MCP-1 in HEK 293 cells
pKi: −log10 of the molar value.
Let's look at some compounds and their measured pKi.

# sample-smiles, pKi
data = [
    ("Cc1ccc(-c2ccc3c(c2)C=C(C(=O)Nc2ccc(C[N+](C)(C)C4CCOCC4)cc2)CCC3)cc1.[Cl-]", 7.67),
    ("O=C(/C=C/c1ccc(Cl)c(Cl)c1)NCCCCCN1CCC(c2c[nH]c3ccc(O)cc23)CC1", 6.89),
    ("Cc1ccc(-c2ccc3c(c2)C=C(C(=O)Nc2ccc(CN(C)C4CCOCC4)cc2)CCC3)cc1", 6.98),
]
